B1: TPR t1 (parent)
chain: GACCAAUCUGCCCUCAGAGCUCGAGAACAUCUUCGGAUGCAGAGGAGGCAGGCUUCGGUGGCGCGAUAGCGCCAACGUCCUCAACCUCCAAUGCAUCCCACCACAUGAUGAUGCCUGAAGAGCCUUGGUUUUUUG

# Variants of: B1
# measurement-notes: polymerase ribozyme fitness, log enrichment relative to wild type (log ratio); higher = more active; in vitro selection for triplet polymerase activity
Decision: polymerase ribozyme fitness (log ratio) compared against -4; not below it gives satisfied, below it gives not satisfied.

{"sequence-variant": "C8G A24G C72G C97G C115G", "assigned-category": "not satisfied"}
{"sequence-variant": "G63U C88A", "assigned-category": "satisfied"}
{"sequence-variant": "C56U C76A G93A G120C", "assigned-category": "not satisfied"}
{"sequence-variant": "A5U A18C G57U C72U", "assigned-category": "satisfied"}
{"sequence-variant": "C12U G117C", "assigned-category": "satisfied"}
{"sequence-variant": "G10C C73A", "assigned-category": "satisfied"}
{"sequence-variant": "G71U U81G", "assigned-category": "not satisfied"}
{"sequence-variant": "G39U C56G C72G U112C C124U", "assigned-category": "satisfied"}
{"sequence-variant": "G69C U92A U109G", "assigned-category": "not satisfied"}
{"sequence-variant": "C12G C114U", "assigned-category": "satisfied"}
{"sequence-variant": "U129A", "assigned-category": "satisfied"}
{"sequence-variant": "G60U U92A", "assigned-category": "satisfied"}
{"sequence-variant": "G39U C64U", "assigned-category": "satisfied"}
{"sequence-variant": "C72A C98A", "assigned-category": "not satisfied"}
{"sequence-variant": "U78C G93A U112C G128U", "assigned-category": "satisfied"}
{"sequence-variant": "C49A C72A", "assigned-category": "satisfied"}
{"sequence-variant": "C82U A83U A111U", "assigned-category": "satisfied"}
{"sequence-variant": "G48U C56U", "assigned-category": "satisfied"}
